# Assayed target: Bromodomain adjacent to zinc finger domain protein 2B (Homo sapiens, UniProt Q9UIF8)
# Sequence (Q9UIF8 whole entry, the tested form may be a part): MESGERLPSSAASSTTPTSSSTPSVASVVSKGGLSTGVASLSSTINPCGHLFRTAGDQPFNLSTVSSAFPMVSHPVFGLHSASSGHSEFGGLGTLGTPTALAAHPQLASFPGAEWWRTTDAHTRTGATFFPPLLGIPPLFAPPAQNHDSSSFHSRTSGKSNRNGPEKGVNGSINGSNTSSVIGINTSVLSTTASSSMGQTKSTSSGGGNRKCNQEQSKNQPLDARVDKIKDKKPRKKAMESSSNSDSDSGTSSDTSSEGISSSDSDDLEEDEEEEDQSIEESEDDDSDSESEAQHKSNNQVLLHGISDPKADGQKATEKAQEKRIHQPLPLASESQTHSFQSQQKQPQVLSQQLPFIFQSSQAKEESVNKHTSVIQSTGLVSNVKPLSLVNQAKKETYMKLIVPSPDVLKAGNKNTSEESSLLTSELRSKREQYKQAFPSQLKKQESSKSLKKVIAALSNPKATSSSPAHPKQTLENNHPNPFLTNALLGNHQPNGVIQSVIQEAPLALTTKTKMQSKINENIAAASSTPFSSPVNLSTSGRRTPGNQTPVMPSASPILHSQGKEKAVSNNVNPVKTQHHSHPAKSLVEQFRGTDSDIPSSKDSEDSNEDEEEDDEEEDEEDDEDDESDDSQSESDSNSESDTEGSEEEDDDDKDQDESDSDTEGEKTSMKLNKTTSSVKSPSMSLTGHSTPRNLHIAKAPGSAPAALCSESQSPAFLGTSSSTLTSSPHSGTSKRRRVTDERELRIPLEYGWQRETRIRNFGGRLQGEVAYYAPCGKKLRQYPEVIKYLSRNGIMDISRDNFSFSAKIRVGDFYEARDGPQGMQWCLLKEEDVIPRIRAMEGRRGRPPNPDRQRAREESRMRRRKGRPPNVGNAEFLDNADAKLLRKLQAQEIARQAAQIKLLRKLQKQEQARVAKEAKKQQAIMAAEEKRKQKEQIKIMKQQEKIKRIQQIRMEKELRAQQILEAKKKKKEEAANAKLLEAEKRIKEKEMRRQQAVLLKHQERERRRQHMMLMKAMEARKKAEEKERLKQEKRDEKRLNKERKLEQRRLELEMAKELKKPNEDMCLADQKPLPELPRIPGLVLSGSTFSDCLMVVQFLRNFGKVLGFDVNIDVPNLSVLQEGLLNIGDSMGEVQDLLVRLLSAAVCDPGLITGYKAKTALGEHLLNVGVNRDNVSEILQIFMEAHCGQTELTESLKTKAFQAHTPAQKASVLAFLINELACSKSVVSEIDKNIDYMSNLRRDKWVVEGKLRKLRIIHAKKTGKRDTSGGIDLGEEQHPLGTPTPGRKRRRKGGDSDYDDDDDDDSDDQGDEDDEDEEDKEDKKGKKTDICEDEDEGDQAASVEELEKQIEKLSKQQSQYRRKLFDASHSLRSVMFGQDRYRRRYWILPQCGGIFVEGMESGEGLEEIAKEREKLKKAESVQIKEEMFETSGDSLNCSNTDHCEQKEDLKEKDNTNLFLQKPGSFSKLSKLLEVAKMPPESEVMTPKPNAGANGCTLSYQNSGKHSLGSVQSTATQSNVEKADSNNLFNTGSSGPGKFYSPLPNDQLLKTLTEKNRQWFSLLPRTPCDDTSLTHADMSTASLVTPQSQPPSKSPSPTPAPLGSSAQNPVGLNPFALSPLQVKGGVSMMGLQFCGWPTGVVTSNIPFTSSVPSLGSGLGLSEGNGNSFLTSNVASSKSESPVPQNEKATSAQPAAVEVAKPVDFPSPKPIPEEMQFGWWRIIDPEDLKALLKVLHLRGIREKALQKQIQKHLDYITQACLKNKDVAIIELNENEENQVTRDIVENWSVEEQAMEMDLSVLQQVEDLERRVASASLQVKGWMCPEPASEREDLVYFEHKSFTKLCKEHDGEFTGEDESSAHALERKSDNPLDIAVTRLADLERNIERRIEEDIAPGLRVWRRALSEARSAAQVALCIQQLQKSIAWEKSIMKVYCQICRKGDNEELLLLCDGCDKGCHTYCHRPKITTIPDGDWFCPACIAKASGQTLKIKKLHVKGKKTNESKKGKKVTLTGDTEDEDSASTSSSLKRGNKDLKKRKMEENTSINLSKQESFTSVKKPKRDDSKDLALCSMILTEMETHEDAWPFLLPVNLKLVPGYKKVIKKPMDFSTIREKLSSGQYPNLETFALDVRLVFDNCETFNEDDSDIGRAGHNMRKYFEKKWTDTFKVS
Measured endpoint: pKd
Scale explanation: pKd corresponds to minus log10 of a concentration expressed in moles per litre.

Worked examples, 3 compounds total:
COCc1nc(-c2cnn(C)c2)c(-c2ccc(C#N)cc2)n1CCc1cnn(C)c1    8.00
Cc1ncsc1-c1ccc(CNC(=O)[C@@H]2C[C@@H](O)CN2C(=O)[C@@H](NC(=O)C2(F)CC2)C(C)(C)SC[C@H]2CC[C@H](COCc3nc(-c4cnn(C)c4)c(-c4ccc(C#N)cc4)n3CCc3cnn(C)c3)CC2)cc1    7.80
Cc1ncsc1-c1ccc(CNC(=O)[C@@H]2C[C@@H](O)CN2C(=O)[C@@H](NC(=O)C2(F)CC2)C(C)(C)C)c(OC[C@H]2CC[C@H](COCc3nc(-c4cnn(C)c4)c(-c4ccc(C#N)cc4)n3CCc3cnn(C)c3)CC2)c1    7.29

Proceed to the following item.
Query: Report measured pKd on Bromodomain adjacent to zinc finger domain protein 2B (Homo sapiens, UniProt Q9UIF8); entry: `Cn1cc(CCn2c(CO)nc(-c3cnn(C)c3)c2-c2ccc(C#N)cc2)cn1`
Result: 8.04
